Assay: Apparent terminal half life in Sprague-Dawley rat at 10 mg/kg, iv administered as single dose by LC-MS/MS analysis
Format: ADME, organism-based
Conditions: in vivo, read-out: betat1/2(app) (converted)
Provide the reported half-life of each item.
Give bare numbers, in h.

# input Tell me half-life reported for CC(=O)N1N=C(c2ccc(O[C@H]3O[C@@H]4O[C@@]5(C)CC[C@H]6[C@H](C)CC[C@@H]([C@H]3C)[C@@]46OO5)cc2)CC1c1ccccc1 (some centres not stated)
# output 3.87

Now look at this entry.
# input For the compound `C[C@H]1[C@@H](Oc2ccc(-c3cc(-c4ccccc4)[nH]n3)cc2)O[C@@H]2O[C@@]3(C)CC[C@H]4[C@H](C)CC[C@@H]1[C@@]24OO3` , give its measured half-life value.
# output 3.58

====

Give clearance for every item shown.
Assay: Apparent clearance in Sprague-Dawley rat at 10 mg/kg, iv administered as single dose by LC-MS/MS analysis
Format: ADME, organism-based
Settings: in vivo, read-out: CL(app) (converted)
One number for each entry, in mL/min/kg.

# input Answer with the recorded clearance for the compound listed here: CC(=O)N1N=C(c2ccc(O[C@H]3O[C@@H]4O[C@@]5(C)CC[C@H]6[C@H](C)CC[C@@H]([C@H]3C)[C@@]46OO5)cc2)CC1c1ccccc1 (some centres not stated)
# output 41.3

Kindly consider the entry below.
# input Please give the documented clearance of `C[C@H]1[C@@H](Oc2ccc(-c3cc(-c4ccccc4)[nH]n3)cc2)O[C@@H]2O[C@@]3(C)CC[C@H]4[C@H](C)CC[C@@H]1[C@@]24OO3`
# output 57.7

====

Assay: Plasma concentration in Sprague-Dawley rat at 10 mg/kg, iv administered as single dose measured at 24 hrs post dosing by LC-MS/MS analysis
Format: ADME, organism-based
readout_name: concentration at 24 h (ng/mL)
One number for each entry, in ng/mL.

# input State its concentration at 24 h for this molecule: CC(=O)N1N=C(c2ccc(O[C@H]3O[C@@H]4O[C@@]5(C)CC[C@H]6[C@H](C)CC[C@@H]([C@H]3C)[C@@]46OO5)cc2)CC1c1ccccc1 (some centres not stated)
# output 6.73

Continue with the next molecule.
# input Give the reported value of concentration at 24 h for this record: `C[C@H]1[C@@H](Oc2ccc(-c3cc(-c4ccccc4)[nH]n3)cc2)O[C@@H]2O[C@@]3(C)CC[C@H]4[C@H](C)CC[C@@H]1[C@@]24OO3`
# output 2.65

====

Consider the following molecules; for each one, report its concentration at 4 h.
Assay: Plasma concentration in Sprague-Dawley rat at 10 mg/kg, iv administered as single dose measured at 4 hrs post dosing by LC-MS/MS analysis
Type: ADME, organism-based
Answers are plain numbers, in ng/mL.

# input Name the recorded concentration at 4 h of the molecule listed here: `C[C@H]1[C@@H](Oc2ccc(-c3cc(-c4ccccc4)[nH]n3)cc2)O[C@@H]2O[C@@]3(C)CC[C@H]4[C@H](C)CC[C@@H]1[C@@]24OO3`
# output 147

Please examine the following record next.
# input Determine from records and report concentration at 4 h for CC(=O)N1N=C(c2ccc(O[C@H]3O[C@@H]4O[C@@]5(C)CC[C@H]6[C@H](C)CC[C@@H]([C@H]3C)[C@@]46OO5)cc2)CC1c1ccccc1 (some centres not stated)
# output 224

====

Would you kindly list Cmax for each of these compounds?
Assay: Cmax in Sprague-Dawley rat at 10 mg/kg, iv administered as single dose by LC-MS/MS analysis
Format: ADME, organism-based
Design: dose 10 mg/kg, route intravenous
Settings: in vivo
One number for each entry, in ng/mL.

# input Report Cmax, nothing else, for this compound: CC(=O)N1N=C(c2ccc(O[C@H]3O[C@@H]4O[C@@]5(C)CC[C@H]6[C@H](C)CC[C@@H]([C@H]3C)[C@@]46OO5)cc2)CC1c1ccccc1 (some centres not stated)
# output 2430

In the following, a different compound is considered.
# input Give a short answer stating reported Cmax for `C[C@H]1[C@@H](Oc2ccc(-c3cc(-c4ccccc4)[nH]n3)cc2)O[C@@H]2O[C@@]3(C)CC[C@H]4[C@H](C)CC[C@@H]1[C@@]24OO3` .
# output 4460

====

Test: Plasma concentration in Sprague-Dawley rat at 10 mg/kg, iv administered as single dose measured at 8 hrs post dosing by LC-MS/MS analysis
Format: ADME, organism-based
readout_name: concentration at 8 h (ng/mL)
Numbers only, in ng/mL.

# input Read off the recorded concentration at 8 h for `C[C@H]1[C@@H](Oc2ccc(-c3cc(-c4ccccc4)[nH]n3)cc2)O[C@@H]2O[C@@]3(C)CC[C@H]4[C@H](C)CC[C@@H]1[C@@]24OO3`
# output 34.1

In the following, a different molecule is considered.
# input Retrieve concentration at 8 h measured for CC(=O)N1N=C(c2ccc(O[C@H]3O[C@@H]4O[C@@]5(C)CC[C@H]6[C@H](C)CC[C@@H]([C@H]3C)[C@@]46OO5)cc2)CC1c1ccccc1 (some centres not stated) and print it.
# output 63.9

====

Assay: Plasma concentration in Sprague-Dawley rat at 10 mg/kg, iv administered as single dose measured at 0.25 hrs post dosing by LC-MS/MS analysis
Assay type: ADME, organism-based
For each entry below, report its concentration at 0.25 h value.
Show the value, then the unit it is measured in.

# input Supply measured concentration at 0.25 h of `C[C@H]1[C@@H](Oc2ccc(-c3cc(-c4ccccc4)[nH]n3)cc2)O[C@@H]2O[C@@]3(C)CC[C@H]4[C@H](C)CC[C@@H]1[C@@]24OO3` in your reply.
# output 1720 ng/mL

Further cases:
# input Tell us which concentration at 0.25 h value is on record for CC(=O)N1N=C(c2ccc(O[C@H]3O[C@@H]4O[C@@]5(C)CC[C@H]6[C@H](C)CC[C@@H]([C@H]3C)[C@@]46OO5)cc2)CC1c1ccccc1 (some centres not stated)
# output 1900 ng/mL

====

Would you mind telling me the reported concentration at 0.083 h of each entry?
Experiment: Plasma concentration in Sprague-Dawley rat at 10 mg/kg, iv administered as single dose measured at 0.083 hrs post dosing by LC-MS/MS analysis
Type: ADME, organism-based
Answers are plain numbers, in ng/mL.

# input Give reported concentration at 0.083 h value for `C[C@H]1[C@@H](Oc2ccc(-c3cc(-c4ccccc4)[nH]n3)cc2)O[C@@H]2O[C@@]3(C)CC[C@H]4[C@H](C)CC[C@@H]1[C@@]24OO3`
# output 4460

---
# input Supply reported concentration at 0.083 h belonging to this molecule: CC(=O)N1N=C(c2ccc(O[C@H]3O[C@@H]4O[C@@]5(C)CC[C@H]6[C@H](C)CC[C@@H]([C@H]3C)[C@@]46OO5)cc2)CC1c1ccccc1 (some centres not stated)
# output 2430

====

Test: Plasma concentration in Sprague-Dawley rat at 10 mg/kg, iv administered as single dose measured at 1 hr post dosing by LC-MS/MS analysis
Format: ADME, organism-based
readout_name: concentration at 1 h
# output: number + unit

# input Please look at this compound and report its concentration at 1 h: CC(=O)N1N=C(c2ccc(O[C@H]3O[C@@H]4O[C@@]5(C)CC[C@H]6[C@H](C)CC[C@@H]([C@H]3C)[C@@]46OO5)cc2)CC1c1ccccc1 (some centres not stated)
# output 935 ng/mL

Further cases:
# input Give the measured concentration at 1 h for `C[C@H]1[C@@H](Oc2ccc(-c3cc(-c4ccccc4)[nH]n3)cc2)O[C@@H]2O[C@@]3(C)CC[C@H]4[C@H](C)CC[C@@H]1[C@@]24OO3`
# output 436 ng/mL

====

Assay: Plasma concentration in Sprague-Dawley rat at 10 mg/kg, iv administered as single dose measured at 0.5 hrs post dosing by LC-MS/MS analysis
Assay type: ADME, organism-based
readout_name: concentration at 0.5 h

# input Look up and report measured concentration at 0.5 h for this entry: CC(=O)N1N=C(c2ccc(O[C@H]3O[C@@H]4O[C@@]5(C)CC[C@H]6[C@H](C)CC[C@@H]([C@H]3C)[C@@]46OO5)cc2)CC1c1ccccc1 (some centres not stated)
# output 1260 ng/mL

Alright, here's another compound for you.
# input Indicate the recorded concentration at 0.5 h value for this compound: `C[C@H]1[C@@H](Oc2ccc(-c3cc(-c4ccccc4)[nH]n3)cc2)O[C@@H]2O[C@@]3(C)CC[C@H]4[C@H](C)CC[C@@H]1[C@@]24OO3`
# output 583 ng/mL
